system: mitochondrial complex I (Mus musculus, UniProt P03888+Q91WD5+Q9DC70)
method.summary: Seahorse OCR in permeabilized CT26 cancer cells, mitochondrial complex I inhibition (Assay #2)
measurement.conditions: pyruvate/malate, tested at 1 and 10 µM, read-out: OCR inhib. (IC50)
property.name: IC50

[
  {
    "record.smiles": "COc1ccc(C(=O)c2c(Cl)cc(Cn3nnc(C(N)=O)c3N)cc2Cl)cc1",
    "val": "~10 µM"
  },
  {
    "record.smiles": "O=C(c1ccc(Cl)cc1)c1c(Cl)cc(Cn2cc(CO)nn2)cc1Cl",
    "val": "> 10 µM"
  },
  {
    "record.smiles": "Nc1c(C(=O)O)nnn1Cc1cccc(NC(=O)c2ccc(OC(F)(F)F)cc2)c1",
    "val": "> 10 µM"
  },
  {
    "record.smiles": "NC(=O)c1nnn(Cc2cc(Cl)c(Cc3ccc(Cl)cc3)c(Cl)c2)c1N",
    "val": "~10 µM"
  },
  {
    "record.smiles": "Nc1c(C(=O)O)nnn1Cc1ccccc1NC(=O)c1ccc(OC(F)(F)F)cc1",
    "val": "> 10 µM"
  }
]

Q. I am curious: what IC50 value has been reported for NC(=O)c1nnn(Cc2cc(Cl)cc(Cl)c2)c1N ?
A. > 10 µM

Q. Next: NC(=O)c1nnn(Cc2cc(Cl)c(C(=O)c3ccc4ccccc4c3)c(Cl)c2)c1N
A. ~10 µM

====

system: mitochondrial complex I (Mus musculus, UniProt P03888+Q91WD5+Q9DC70)
method.summary: Seahorse OCR in permeabilized CT26 cancer cells, mitochondrial complex I inhibition (Assay #2)
measurement.conditions: pyruvate/malate, tested at 1 and 10 µM, read-out: OCR inhib. (IC50)
// values below are reported IC50

[
  {
    "molecule": "NC(=O)c1nnn(Cc2cc(Cl)c(Cc3ccc(C(F)(F)F)cc3)c(Cl)c2)c1N [compound al]",
    "property.name": "IC50",
    "val": "> 10 µM"
  },
  {
    "molecule": "CC(=O)c1c(Cl)cc(Cn2nnc(C(N)=O)c2N)cc1Cl [ao]",
    "property.name": "IC50",
    "val": "> 10 µM"
  },
  {
    "molecule": "NC(=O)c1nnn(Cc2cc(Cl)c(CN3CCOCC3)c(Cl)c2)c1N [ai]",
    "property.name": "IC50",
    "val": "> 10 µM"
  },
  {
    "molecule": "Cc1cc(C)cc(Cn2nnc(C(N)=O)c2N)c1 [ap]",
    "property.name": "IC50",
    "val": "> 10 µM"
  },
  {
    "molecule": "Nc1c(C(=O)O)nnn1Cc1ccc(NC(=O)c2ccc(Cl)cc2)cc1 [ba]",
    "property.name": "IC50",
    "val": "> 10 µM"
  }
]

Q. # get_value(readout='IC50', item= Cc1cccc(C(=O)c2c(Cl)cc(Cn3nnc(C(N)=O)c3N)cc2Cl)c1 [ad] )
A. ~10 µM

Q. Okay, and O=C(O)c1cn(Cc2cc(Cl)c(C(=O)c3ccc(Cl)cc3)c(Cl)c2)nn1 [ar] ?
A. > 10 µM

Q. Same question for NCc1cn(Cc2cc(Cl)c(C(=O)c3ccc(Cl)cc3)c(Cl)c2)nn1 [at] please.
A. > 10 µM

Q. Continue with NC(=O)c1cn(Cc2cc(Cl)c(C(=O)c3ccc(Cl)cc3)c(Cl)c2)nn1 [as]
A. > 10 µM

Q. Queued: Cc1ccc(C(=O)c2c(Cl)cc(Cn3nnc(C(N)=O)c3N)cc2Cl)cc1 [ac]
A. ~10 µM

Q. Repeat with CC(C)(C)OC(=O)N1CCC(Nc2cccc(Cn3nnc(C(=O)O)c3N)c2)CC1 [bc]
A. > 10 µM

Q. Item: Nc1c(C(=O)O)nnn1Cc1cccc(N2CCOCC2)c1 [bd]
A. > 10 µM

Q. Could you do the same for NC(=O)c1nnn(Cc2cc(Cl)c(C(=O)c3ccc(OC(F)(F)F)cc3)c(Cl)c2)c1N [af] , please?
A. ~10 µM
